- target_or_system: Peptidyl-prolyl cis-trans isomerase FKBP1A (Homo sapiens)
- measurement_notes: FKBP12 Assay
The molecules listed here are annotated with their EC50.
Response body: numeric value in nM, unit text excluded.

Would you please look over these solved cases?
| molecule | measurement_unit | EC50 |
| --- | --- | --- |
| CO[C@@H]1C[C@H](C[C@@H](C)[C@@H]2CC(=O)[C@H](C)/C=C(\C)[C@@H](O)[C@@H](OC)C(=O)[C@H](C)C[C@H](C)C=CC=CC=C(C)C(=O)C[C@@H]3CC[C@@H](C)[C@@](O)(O3)C(=O)C(=O)N3CCCC[C@H]3C(=O)O2)CC[C@H]1O [Rapamycin C-7, analog 13] | nM | 300 |
| CCO[C@@H]1C[C@@H]2CC[C@@H](C)[C@@](O)(O2)C(=O)C(=O)N2CCCC[C@H]2C(=O)O[C@H]([C@H](C)C[C@@H]2CC[C@@H](O)[C@H](OC)C2)CC(=O)[C@H](C)/C=C(\C)[C@@H](O)[C@@H](OC)C(=O)[C@H](C)C[C@H](C)/C=C/C=C/C=C/1C [Rapamycin C-7, analog 5a] | nM | 10 |
| CO[C@@H]1C[C@H](C[C@@H](C)[C@@H]2CC(=O)[C@H](C)/C=C(\C)[C@@H](O)[C@@H](OC)C(=O)[C@H](C)C[C@H](C)/C=C/C=C/C=C(\C)[C@H](c3ccc[nH]3)C[C@@H]3CC[C@@H](C)[C@@](O)(O3)C(=O)C(=O)N3CCCC[C@H]3C(=O)O2)CC[C@H]1O [Rapamycin C-7, analog 11a] | nM | 11 |
| CO[C@@H]1C[C@H](C[C@@H](C)[C@@H]2CC(=O)[C@H](C)/C=C(\C)[C@@H](O)[C@@H](OC)C(=O)[C@H](C)C[C@H](C)/C=C/C=C/C=C(\C)[C@@H](SC)C[C@@H]3CC[C@@H](C)[C@@](O)(O3)C(=O)C(=O)N3CCCC[C@H]3C(=O)O2)CC[C@H]1O [Rapamycin C-7, analog 6b] | nM | 4 |

Now, please, on to the next molecule.
Query string: Please report EC50 for the following molecule: CO[C@@H]1C[C@H](C[C@@H](C)[C@@H]2CC(=O)[C@H](C)/C=C(\C)[C@@H](O)[C@@H](OC)C(=O)[C@H](C)C[C@H](C)/C=C/C=C/C=C(\C)[C@@H](c3ccco3)C[C@@H]3CC[C@@H](C)[C@@](O)(O3)C(=O)C(=O)N3CCCC[C@H]3C(=O)O2)CC[C@H]1O [Rapamycin C-7, analog 10b]
Result string: 20

###

- target_or_system: Peptidyl-prolyl cis-trans isomerase FKBP1A (Homo sapiens, UniProt P62942)
- Sequence (P62942 whole entry): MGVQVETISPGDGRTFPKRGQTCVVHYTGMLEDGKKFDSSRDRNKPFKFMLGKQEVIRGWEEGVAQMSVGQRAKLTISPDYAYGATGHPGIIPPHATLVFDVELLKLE
The compounds listed here are annotated with their pKi.
Notebook: values listed as pKi are -log10 of the concentration (mol/L).

| compound | pKi |
| --- | --- |
| COC(=O)N[C@@H]1C[C@@H]2CC[C@@H](C)[C@@](O)(O2)C(=O)C(=O)N2CCCC[C@H]2C(=O)O[C@H]([C@H](C)C[C@@H]2CC[C@@H](O)[C@H](OC)C2)CC(=O)[C@H](C)/C=C(\C)[C@@H](O)[C@@H](OC)C(=O)[C@H](C)C[C@H](C)/C=C/C=C/C=C/1C [Rapamycin C-7, analog 7a] | 8.35 |

Now, please, on to the next compound.
Query string: Provide the reported pKi (system: Peptidyl-prolyl cis-trans isomerase FKBP1A (Homo sapiens, UniProt P62942)) for CO[C@@H]1C[C@H](C[C@@H](C)[C@@H]2CC(=O)[C@H](C)/C=C(\C)[C@@H](O)[C@@H](OC)C(=O)[C@H](C)C[C@H](C)/C=C/C=C/C=C(\C)[C@H](c3ccc[nH]3)C[C@@H]3CC[C@@H](C)[C@@](O)(O3)C(=O)C(=O)N3CCCC[C@H]3C(=O)O2)CC[C@H]1O [Rapamycin C-7, analog 11a]
Result string: 8.00
